The following compounds are shown together with reported IC50 values.
- SYSTEM_TESTED: recombinant human HPK1 (Homo sapiens (Human), UniProt Q92918)
- Sequence (Q92918 whole entry): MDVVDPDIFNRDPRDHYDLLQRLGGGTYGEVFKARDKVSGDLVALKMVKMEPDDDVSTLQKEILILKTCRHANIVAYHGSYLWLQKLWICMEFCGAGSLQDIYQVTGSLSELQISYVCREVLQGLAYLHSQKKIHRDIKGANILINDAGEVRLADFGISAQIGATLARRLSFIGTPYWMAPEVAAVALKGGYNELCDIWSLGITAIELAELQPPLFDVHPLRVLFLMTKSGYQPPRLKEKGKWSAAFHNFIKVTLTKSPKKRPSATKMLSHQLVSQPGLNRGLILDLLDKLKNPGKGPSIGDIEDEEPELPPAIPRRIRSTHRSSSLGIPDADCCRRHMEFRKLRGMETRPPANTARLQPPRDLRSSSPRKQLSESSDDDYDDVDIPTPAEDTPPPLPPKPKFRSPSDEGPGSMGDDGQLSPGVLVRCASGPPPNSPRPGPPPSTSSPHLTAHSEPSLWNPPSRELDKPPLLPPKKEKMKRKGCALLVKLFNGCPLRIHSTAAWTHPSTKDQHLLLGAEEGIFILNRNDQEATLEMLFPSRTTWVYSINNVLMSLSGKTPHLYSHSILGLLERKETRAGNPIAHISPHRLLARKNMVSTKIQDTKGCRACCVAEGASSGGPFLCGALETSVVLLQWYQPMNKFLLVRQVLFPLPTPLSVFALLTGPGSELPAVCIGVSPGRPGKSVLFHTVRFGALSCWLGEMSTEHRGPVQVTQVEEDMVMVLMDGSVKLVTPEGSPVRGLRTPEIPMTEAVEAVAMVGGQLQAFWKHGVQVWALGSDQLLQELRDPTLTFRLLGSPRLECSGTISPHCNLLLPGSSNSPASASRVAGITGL
- ASSAY_SUMMARY: HPK1 kinase assay (Promega ADP-Glo kinase assay)
- DETAILS: In vitro activity against HPK1, 5 ng HPK1, MBP substrate, ATP 25 μM, 30° C. 40 minutes
Where a name gives a salt, the structure may show the parent alone.

Solved cases below.
[[record]]
compound = "CC(O)c1c(F)c(C(F)F)c(-c2cn3cc(NC(=O)[C@@H]4C[C@@H]4F)nc3cn2)c2cn[nH]c12 (stereo partly shown)"
recorded_measurement = "< 100 nM"

[[record]]
compound = "Cc1c(F)c(C(C)NC(=O)C(F)(F)F)c2[nH]ncc2c1-c1cn2cc(NC(=O)[C@@H]3C[C@@H]3F)nc2cn1 (stereo partly shown)"
recorded_measurement = "< 100 nM"

[[record]]
compound = "O=C(NC(c1c(F)c(C(F)F)c(-c2cn3cc(NC(=O)[C@@H]4C[C@@H]4F)nc3cn2)c2cn[nH]c12)C1CC1)C1CC1 (stereo partly shown)"
recorded_measurement = "< 100 nM"

[[record]]
compound = "COC(=O)[C@H]1C[C@H]1C(=O)Nc1cn2cc(-c3c(Cl)c(F)c(NC(C)C)c4[nH]ncc34)ncc2n1"
recorded_measurement = "< 100 nM"

[[record]]
compound = "CC(C)Nc1c(F)c(Cl)c(-c2cn3cc(NC(=O)[C@H](C)N)nc3cn2)c2cn[nH]c12"
recorded_measurement = "< 100 nM"


Q: Endpoint output: IC50 of CC(C)Nc1c(F)c(Cl)c(-c2cn3cc(NC(=O)OC4CCC4)nc3cn2)c2cn[nH]c12 [Example 126, formate] . Value?
Result: < 100 nM

Q: Endpoint output: IC50 of COC(=O)C1OC(N(c2c(F)c(Cl)c(-c3cn4cc(NC(=O)[C@@H]5C[C@@H]5F)nc4cn3)c3cn[nH]c23)C(C)C)C(OC(C)=O)C(OC(C)=O)C1OC(C)=O (stereo partly shown) . Value?
Result: 101 to 500 nM

Q: Endpoint output: IC50 of CCNC(=O)[C@H]1C[C@H]1C(=O)Nc1cn2cc(-c3c(Cl)c(F)c(NC(C)C)c4[nH]ncc34)ncc2n1 . Value?
Result: < 100 nM

Q: Endpoint output: IC50 of CC(=O)Nc1cn2cc(-c3c(Cl)c(F)c([C@H](C)NC(=O)C(F)(F)F)c4[nH]ncc34)ncc2n1 . Value?
Result: < 100 nM

Q: Endpoint output: IC50 of COC1CCCC1c1c(F)c(C)c(-c2cn3cc(NC(=O)[C@@H]4C[C@@H]4F)nc3cn2)c2cn[nH]c12 (stereo partly shown) . Value?
Result: < 100 nM

Q: Endpoint output: IC50 of Cc1c(F)c(NC(C)C)c2[nH]ncc2c1-c1cn2cc(NC(=O)[C@H]3C[C@@H]3F)nc2cn1 . Value?
Result: < 100 nM

Q: Endpoint output: IC50 of CC(C)Nc1c(F)c(C(=O)O)c(-c2cn3cc(NC(=O)[C@@H]4C[C@@H]4F)nc3cn2)c2cn[nH]c12 . Value?
Result: 501 to 1000 nM

Q: Endpoint output: IC50 of CC(C)Nc1c(F)c(Cl)c(-c2cn3cc(NC(=O)C4CCN4)nc3cn2)c2cn[nH]c12 (stereo not shown) . Value?
Result: 101 to 500 nM
